# assay.info: clinical
# Format: in vivo, human (female subjects)
# measurement.context: female, human, in vivo, 3 mg
result.type: Cmax (ng/mL)

1) CCN(CC)CC#CCOC(=O)C(O)(c1ccccc1)C1CCCCC1 (stereo not shown): 5.4

* * *

# assay.info: clinical
# Type: in vivo, human (female subjects)
# measurement.context: female, human, in vivo, 3 mg
result.type: half-life (h)

1. CCN(CC)CC#CCOC(=O)C(O)(c1ccccc1)C1CCCCC1 (stereo not shown): 8.5

* * *

# assay.info: clinical
# Format: in vivo, human (female subjects)
# measurement.context: female, human, in vivo, 3 mg
result.type: AUC(0-inf) (ng·h/mL)

1. CCN(CC)CC#CCOC(=O)C(O)(c1ccccc1)C1CCCCC1 (stereo not shown): 34.9

Where do these numbers come from? They come from patent US20240075005A1.
